Experiment: Luminescence Cell-Based Dose Confirmation HTS to Identify Activators of 5'UTR Stem-Loop Driven Alpha-Synuclein mRNA Translation in H4 Neuroglioblastoma Cells. [Related pubchem assays: 1829 (Project Summary), 1814 (Primary HTS)]
Format: functional
Calls of active or inactive are those of the source. Rule as the data show it: actives have a measured EC50 and inactives only a lower limit.
assay_metric: EC50

| molecule | assay_metric | endpoint_value |
| --- | --- | --- |
| CCn1cc(SCC(=O)N2CCOCC2)c2ccccc21 | EC50 | 5.63 µM (active) |
| COc1ccc(S(=O)(=O)N2CCN(C(=O)c3ccc([N+](=O)[O-])o3)CC2)cc1 | EC50 | > 120 µM (not active) |
| Cc1ccc(-n2nc(C)c3c2OC(N)=C(C#N)C3c2ccc(F)cc2)cc1 (configuration not stated) | EC50 | > 120 µM (not active) |
| CCOc1ccc(-c2c(=O)n(OCc3ccc([N+](=O)[O-])cc3)c3ccccc3[n+]2[O-])cc1 | EC50 | > 120 µM (not active) |
| COc1ccc(C(=O)N/N=C/C(=O)c2ccccc2)cc1 | EC50 | 5.67 µM (active) |
| Cc1ccccc1-c1nnc(SCc2ccccc2)o1 | EC50 | 7.97 µM (active) |
| CCC1=NN2C(=N)/C(=C\c3ccc(OCCOc4ccccc4)c(OC)c3)C(=O)N=C2S1 | EC50 | 9.45 µM (active) |
